Biological target: Ionotropic glutamate receptor NMDA 1/2D (Rattus norvegicus) (UniProt P35439+Q62645)
Assay: Positive allosteric modulation of recombinant rat GluN1/GluN2D receptor expressed in xenopus laevis oocyte assessed as potentiation of glutamate and glycine-induced current response at 30 uM at holding potential -40mV by two electrode voltage clamp method relative to control
property: Activity (%)
Report only the number, with the unit % understood.

[[record]]
compound = "COc1ccc(OCC2c3ccc(OC(C)C)cc3CCN2C(=O)c2cccc(O)c2)cc1 (centres undefined)"
property = "Activity"
valueobserved = 105

[[record]]
compound = "COc1ccc(OCC2c3ccc(OC4CCCCC4)cc3CCN2C(=O)c2cccc(Cl)c2)cc1 (centres undefined)"
property = "Activity"
valueobserved = 309


Attention now shifts to the item below.
Note to self: Activity recorded for CCOc1ccc(OCC2c3ccc(OCC)cc3CCN2C(=O)c2cccc(F)c2)cc1 (centres undefined) was 67
